Hi! I'm sharing some IC50 results obtained with Phospholipase D2 (Homo sapiens).
Sequence (O14939 whole entry): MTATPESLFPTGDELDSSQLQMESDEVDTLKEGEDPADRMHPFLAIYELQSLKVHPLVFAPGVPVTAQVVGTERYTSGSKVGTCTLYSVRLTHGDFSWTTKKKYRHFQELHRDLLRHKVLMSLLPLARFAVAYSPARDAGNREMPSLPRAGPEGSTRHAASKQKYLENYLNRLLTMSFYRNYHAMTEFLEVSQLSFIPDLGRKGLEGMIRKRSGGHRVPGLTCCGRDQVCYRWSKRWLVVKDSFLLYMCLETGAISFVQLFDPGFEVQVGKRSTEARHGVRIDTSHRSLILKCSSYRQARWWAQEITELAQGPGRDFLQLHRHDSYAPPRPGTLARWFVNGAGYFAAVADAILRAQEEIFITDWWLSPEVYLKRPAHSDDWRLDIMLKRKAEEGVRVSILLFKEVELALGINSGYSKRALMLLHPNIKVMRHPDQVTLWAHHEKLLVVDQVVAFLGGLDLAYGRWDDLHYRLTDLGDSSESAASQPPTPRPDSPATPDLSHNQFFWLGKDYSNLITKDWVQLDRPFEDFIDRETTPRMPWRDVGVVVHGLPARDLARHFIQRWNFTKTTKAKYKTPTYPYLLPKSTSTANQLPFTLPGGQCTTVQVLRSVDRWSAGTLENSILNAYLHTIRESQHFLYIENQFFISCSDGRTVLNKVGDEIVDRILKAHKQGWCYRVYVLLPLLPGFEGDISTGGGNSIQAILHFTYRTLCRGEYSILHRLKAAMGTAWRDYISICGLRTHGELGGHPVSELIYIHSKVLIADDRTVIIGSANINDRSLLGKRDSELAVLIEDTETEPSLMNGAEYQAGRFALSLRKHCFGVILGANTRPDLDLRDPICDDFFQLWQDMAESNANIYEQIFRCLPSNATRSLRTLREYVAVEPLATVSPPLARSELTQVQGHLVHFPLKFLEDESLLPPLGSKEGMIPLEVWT

{"compound.smiles": "O=C(NCCN1CCC2(CC1)C(=O)NCN2c1ccc(F)cc1)c1cnc2ccccc2c1", "IC50": "40 nM"}
{"compound.smiles": "O=C(NCCN1CCC2(CC1)C(=O)NCN2c1ccc(Cl)cc1)c1ccc(F)cc1", "IC50": "5670 nM"}
{"compound.smiles": "O=C(NCCN1CCC2(CC1)C(=O)NCN2c1ccc(F)cc1)c1cc2cc(F)ccc2[nH]1", "IC50": "30 nM"}
{"compound.smiles": "O=C(NCCN1CCC2(CC1)C(=O)NCN2c1cccc(F)c1)c1cnc2ccccc2c1", "IC50": "63 nM"}
{"compound.smiles": "O=C(NCCN1CCC2(CC1)C(=O)NCN2c1ccc(Br)cc1)c1ccc(F)cc1", "IC50": "8000 nM"}
{"compound.smiles": "O=C(NCCN1CCC2(CC1)C(=O)NCN2c1ccc(Br)cc1)c1cnc2ccccc2c1", "IC50": "360 nM"}
{"compound.smiles": "O=C(NCCN1CCC2(CC1)C(=O)NCN2c1ccc(Br)cc1)c1cc2cc(F)ccc2[nH]1", "IC50": "100 nM"}

====

Phospholipase D2 (Homo sapiens) measurements of IC50, listed per entry.

{"compound.smiles": "O=C(NCCN1CCC2(CC1)C(=O)NCN2c1ccc(F)c(F)c1)c1ccc(F)cc1", "measurement.target": "Phospholipase D2 (Homo sapiens)", "units.text": "nM", "IC50": 660}
{"compound.smiles": "O=C(NCCN1CCC2(CC1)C(=O)NCN2c1ccc(F)c(F)c1)c1cnc2ccccc2c1", "measurement.target": "Phospholipase D2 (Homo sapiens)", "units.text": "nM", "IC50": 70}
{"compound.smiles": "O=C(NCCN1CCC2(CC1)C(=O)NCN2c1cccc(Cl)c1)c1cc2cc(F)ccc2[nH]1", "measurement.target": "Phospholipase D2 (Homo sapiens)", "units.text": "nM", "IC50": 73}
{"compound.smiles": "O=C(NCCN1CCC2(CC1)C(=O)NCN2c1ccc(Br)cc1)c1ccc2ccccc2c1", "measurement.target": "Phospholipase D2 (Homo sapiens)", "units.text": "nM", "IC50": 350}
{"compound.smiles": "O=C(NCCN1CCC2(CC1)C(=O)NCN2c1ccc(Cl)cc1)c1cnc2ccccc2c1", "measurement.target": "Phospholipase D2 (Homo sapiens)", "units.text": "nM", "IC50": 200}
{"compound.smiles": "O=C(NCCN1CCC2(CC1)C(=O)NCN2c1cccc(Cl)c1)c1ccc2ccccc2c1", "measurement.target": "Phospholipase D2 (Homo sapiens)", "units.text": "nM", "IC50": 290}
{"compound.smiles": "O=C(NCCN1CCC2(CC1)C(=O)NCN2c1ccc(F)cc1)c1ccc2ccccc2c1", "measurement.target": "Phospholipase D2 (Homo sapiens)", "units.text": "nM", "IC50": 80}

====

- Species: Homo sapiens
- assay.text: Selectivity ratio of IC50 for human PLD1 to IC50 for human GST-tagged PLD2A

{"compound.smiles": "O=C(NCCN1CCC2(CC1)C(=O)NCN2c1ccc(Br)cc1)c1ccc(F)cc1", "Selectivity ratio": 1}
{"compound.smiles": "O=C(NCCN1CCC2(CC1)C(=O)NCN2c1cccc(Cl)c1)c1ccc(F)cc1", "Selectivity ratio": 50}
{"compound.smiles": "O=C(NCCN1CCC2(CC1)C(=O)NCN2c1cccc(F)c1)c1cnc2ccccc2c1", "Selectivity ratio": 40}
{"compound.smiles": "O=C(NCCN1CCC2(CC1)C(=O)NCN2c1ccc(Br)cc1)c1cc2cc(F)ccc2[nH]1", "Selectivity ratio": 27}
{"compound.smiles": "O=C(NCCN1CCC2(CC1)C(=O)NCN2c1ccc(Cl)cc1)c1cc2cc(F)ccc2[nH]1", "Selectivity ratio": 7}
{"compound.smiles": "O=C(NCCN1CCC2(CC1)C(=O)NCN2c1ccc(Br)cc1)c1cnc2ccccc2c1", "Selectivity ratio": 8}
{"compound.smiles": "O=C(NCCN1CCC2(CC1)C(=O)NCN2c1ccc(F)cc1)c1cnc2ccccc2c1", "Selectivity ratio": 50}
{"compound.smiles": "O=C(NCCN1CCC2(CC1)C(=O)NCN2c1ccc(Cl)cc1)c1ccc(F)cc1", "Selectivity ratio": 1}
{"compound.smiles": "O=C(NCCN1CCC2(CC1)C(=O)NCN2c1ccc(F)cc1)c1ccc2ccccc2c1", "Selectivity ratio": 21}
{"compound.smiles": "O=C(NCCN1CCC2(CC1)C(=O)NCN2c1ccc(F)c(F)c1)c1cc2cc(F)ccc2[nH]1", "Selectivity ratio": 4}
{"compound.smiles": "O=C(NCCN1CCC2(CC1)C(=O)NCN2c1ccc(Cl)cc1)c1cnc2ccccc2c1", "Selectivity ratio": 17}
